Hi there, I'd appreciate the recorded Corn plant response rating for every entry that follows.
# System: corn
# experiment: Test A postemergence
# Format: in vivo, Zea mays
# run-parameters: Postemergence, 500 g ai/ha; visual rating after approx. 10 days, 0 to 100 scale (0 no effect, 100 complete control)
# print the numeric value only

Exercise: Bench note: what Corn plant response rating did Cc1cc(C(=O)NC2CC2)nn1Oc1ccnc(C(F)(F)F)c1 [Compound 81] show?
Solution: 20

Exercise: Next: CCc1cc(C(=O)Nc2ccc(F)cc2)nn1Oc1ccnc(C(F)(F)F)c1 [Compound 89]
Solution: 20

Exercise: Next: CCONC(=O)c1cc(CC)n(Cc2cccc(OC(F)(F)F)c2)n1 [Compound 72]
Solution: 80

Exercise: Next: Cc1cc(C(=O)NCC(F)(F)F)nn1Cc1cccc(C(F)(F)F)c1F [Compound 9]
Solution: 0

Exercise: Next: CCc1cc(C(=O)NOC(C)C)nn1Cc1cccc(OC(F)(F)F)c1 [Compound 70]
Solution: 70

Exercise: Next: CCCNC(=O)c1cc(CC)n(Cc2cccc(C(F)(F)F)n2)n1 [Compound 88]
Solution: 10

Exercise: Next: CCc1cc(C(=O)NCC(F)(F)F)nn1Cc1cc(C(F)(F)F)nn1C [Compound 108]
Solution: 100

Exercise: Next: CCCNC(=O)c1cc(CC)n(Cc2cc(C(F)(F)F)nn2CC)n1 [Compound 117]
Solution: 50

Exercise: Next: CCCc1cc(C(=O)Nc2ccc(F)cc2)nn1Oc1ccnc(C(F)(F)F)c1 [Compound 94]
Solution: 0

====

# System: waterhemp
# experiment: Test C postemergence
# Type: in vivo, Amaranthus rudis
# run-parameters: postemergence, 62 g ai/ha; scale 0 to 100
measurement-label: Waterhemp plant response rating
# print the numeric value only

Exercise: Bench note: what Waterhemp plant response rating did `CCONC(=O)c1cc(CC)n(Cc2ccnc(OC(F)F)c2)n1` show?
Solution: 55

Exercise: Next: `CCCNC(=O)c1cc(OCC)n(Cc2ccnc(OC(F)F)c2)n1`
Solution: 70

Exercise: Next: `CCONC(=O)c1cc(CC)n(Cc2ccnc(C(F)(F)F)c2)n1`
Solution: 10

Exercise: Next: `CCCNC(=O)c1cc(CC)n(Cc2nc(C(F)(F)F)nn2C)n1`
Solution: 35

====

Hi there, I'd appreciate the recorded Plant response rating, Ragweed for every entry that follows.
# System: ragweed
# experiment: Test C postemergence
# Assay type: in vivo, Ambrosia elation
# run-parameters: postemergence; 125 g ai/ha; scale 0 to 100, 0 no effect, 100 complete control
# print the numeric value only

Exercise: Bench note: what Plant response rating, Ragweed did `CCCc1cc(C(=O)NC2CC2)nn1Cc1cc(C(F)(F)F)nn1C` show?
Solution: 65

Exercise: Next: `CCc1cc(-c2ccc(C(F)(F)F)cc2)nn1Cc1ccnc(C(F)(F)F)c1`
Solution: 80

Exercise: Next: `CCCc1cc(C(=O)NCC(F)(F)F)nn1Cc1ccnc(OC(F)F)c1`
Solution: 50

Exercise: Next: `CCCNC(=O)c1cc(CC)n(Cc2ccnc(C(F)(F)F)c2)n1`
Solution: 85

Exercise: Next: `CCc1cc(C(=O)NCC(F)(F)F)nn1Cc1cccc(OC(F)(F)F)c1`
Solution: 15

Exercise: Next: `CCOc1cc(C(=O)NCC(F)(F)F)nn1Cc1ccnc(OC(F)F)c1`
Solution: 85

Exercise: Next: `CCONC(=O)c1cc(CC)n(Cc2cccc(OC(F)(F)F)c2)n1`
Solution: 20

Exercise: Next: `CCc1cc(C(=O)NC2CC2)nn1Cc1ccnc(Br)c1`
Solution: 50

Exercise: Next: `CCc1cc(C(=O)NOC(C)C)nn1Cc1cccc(OC(F)(F)F)c1`
Solution: 65

Exercise: Next: `O=C(NC1CC1)c1cc(CCCl)n(Cc2ccnc(C(F)(F)F)c2)n1`
Solution: 35

Exercise: Next: `CCNC(=O)c1cc(CC)n(Cc2cc(C(F)(F)F)nn2C)n1`
Solution: 15

====

# Test system: morningglory
# experiment: Test A postemergence
# Format: in vivo, Ipomoea spp.
# run-parameters: Postemergence, 500 g ai/ha; visual rating after approx. 10 days, 0 to 100 scale (0 no effect, 100 complete control)
measurement-label: Morningglory plant response rating
# print the numeric value only

Exercise: Bench note: what Morningglory plant response rating did CCc1cc(C(=O)NC2CC2)nn1Cc1cccc(C(F)(F)F)n1 [Compound 91] show?
Solution: 20

Exercise: Next: Cc1cc(C(=O)NCC(F)(F)F)nn1Cc1cc(F)cc(C(F)(F)F)c1 [Compound 13]
Solution: 100

Exercise: Next: Cc1cc(C(=O)Nc2ccc(F)cc2)nn1Oc1ccnc(C(F)(F)F)c1 [Compound 90]
Solution: 10

Exercise: Next: Cc1cc(C(=O)NCC(F)(F)C(F)(F)F)nn1Cc1cccc(OC(F)(F)F)c1 [Compound 6]
Solution: 60

Exercise: Next: CCCNC(=O)c1cc(CC)n(Cc2cc(C(F)(F)F)nn2CC)n1 [Compound 117]
Solution: 90

Exercise: Next: Cc1cc(C(=O)NCC(F)(F)F)nn1Cc1cccc(OC(F)(F)F)c1 [Compound 5]
Solution: 100

Exercise: Next: CCc1cc(C(=O)NCC(F)(F)F)nn1Cc1nc(C(F)(F)F)nn1C [Compound 107]
Solution: 100

Exercise: Next: CCc1cc(C(=O)NCC(F)(F)F)nn1Cc1cc(C(F)(F)F)nn1C [Compound 108]
Solution: 100

====

# System: lambsquarters
# experiment: Test C preemergence
# Type: in vivo, Chenopodium album
# run-parameters: preemergence, 62 g ai/ha; scale 0 to 100 (0 no effect, 100 complete control), 13 to 15 days
Hi there, I'd appreciate the recorded Lambsquarters plant response rating for every entry that follows.
# print the numeric value only

Exercise: Bench note: what Lambsquarters plant response rating did `O=C(NC1CC1)c1cc(CCF)n(Cc2ccnc(C(F)(F)F)c2)n1` show?
Solution: 98

Exercise: Next: `CCCc1cc(C(=O)NOC(C)C)nn1Cc1cc(C(F)(F)F)nn1C`
Solution: 100

Exercise: Next: `CCCc1cc(C(=O)NC2CC2)nn1Cc1ccnc(OC(F)F)c1`
Solution: 95

Exercise: Next: `CCc1cc(C(=O)NC2CC2)nn1Cc1ccnc(Br)c1`
Solution: 98

Exercise: Next: `CCCNC(=O)c1cc(OCC)n(Cc2ccnc(C(F)(F)F)c2)n1`
Solution: 100

====

# Tested on: corn
# experiment: Test C postemergence
# Format: in vivo, Zea mays
# run-parameters: postemergence, 62 g ai/ha; scale 0 to 100
Hi there, I'd appreciate the recorded Corn plant response rating for every entry that follows.

Exercise: Bench note: what Corn plant response rating did `CCONC(=O)c1cc(CC)n(Cc2ccnc(OC(F)F)c2)n1` show?
Solution: 5

Exercise: Next: `CCCNC(=O)c1cc(CC)n(Cc2ccnc(C(F)(F)F)c2)n1`
Solution: 20

Exercise: Next: `CCc1cc(C(=O)NOC(C)C)nn1Cc1ccnc(OC(F)F)c1`
Solution: 10

Exercise: Next: `Cc1cc(C(=O)NCC(F)(F)F)nn1Cc1ccnc(C(F)(F)F)c1`
Solution: 10

Exercise: Next: `CCCc1cc(C(=O)NC2CC2)nn1Cc1ccnc(OC(F)F)c1`
Solution: 10

Exercise: Next: `CCOc1cc(C(=O)NCC(F)(F)F)nn1Cc1ccnc(OC(F)F)c1`
Solution: 5

Exercise: Next: `CCc1cc(C(=O)NCC(F)(F)F)nn1Cc1cc(C(F)(F)F)nn1C`
Solution: 5

Exercise: Next: `CCONC(=O)c1cc(CC)n(Cc2cccc(OC(F)(F)F)c2)n1`
Solution: 10

Exercise: Next: `CCCc1cc(C(=O)NC(C)C)nn1Cc1ccnc(C(F)(F)F)c1`
Solution: 40

====

Hi there, I'd appreciate the recorded Crabgrass, Large plant response rating for every entry that follows.
# System: crabgrass, large
# experiment: Test C preemergence
# Assay type: in vivo, Digitaria sanguinalis
# run-parameters: preemergence, 31 g ai/ha; visual rating, scale 0 to 100 (0 no effect, 100 complete control), 13 to 15 days
# print the numeric value only

Exercise: Bench note: what Crabgrass, Large plant response rating did `CCOc1cc(C(=O)NOC(C)C)nn1Cc1ccnc(C(F)(F)F)c1` show?
Solution: 85

Exercise: Next: `CCNC(=O)c1cc(CC)n(Cc2cc(C(F)(F)F)nn2C)n1`
Solution: 100

Exercise: Next: `O=C(NCC(F)(F)F)c1cc(CCF)n(Cc2ccnc(C(F)(F)F)c2)n1`
Solution: 100

Exercise: Next: `CCc1cc(C(=O)NCC(F)(F)F)nn1Cc1nc(C(F)(F)F)nn1C`
Solution: 98

====

# System: nutsedge, yellow
# experiment: Test C preemergence
# Type: in vivo, Cyperus esculentus
# run-parameters: preemergence, 125 g ai/ha; 13 to 15 days; scale 0 to 100, 0 = no effect, 100 = complete control
# From the text: […]
measurement-label: Plant response rating, Nutsedge, Yellow
# print the numeric value only

Exercise: Bench note: what Plant response rating, Nutsedge, Yellow did CCCNC(=O)c1cc(OCC)n(Cc2ccnc(C(F)(F)F)c2)n1 [Compound 187] show?
Solution: 85

Exercise: Next: O=C(NC1CC1)c1cc(CCCl)n(Cc2ccnc(C(F)(F)F)c2)n1 [Compound 144]
Solution: 65

Exercise: Next: CCONC(=O)c1cc(CC)n(Cc2ccnc(OC(F)F)c2)n1 [Compound 131]
Solution: 95

Exercise: Next: O=C(NCC(F)(F)F)c1cc(CCF)n(Cc2ccnc(C(F)(F)F)c2)n1 [Compound 175]
Solution: 70

Exercise: Next: CCc1cc(C(=O)NC2CC2)nn1Cc1ccnc(Br)c1 [Compound 220]
Solution: 5

Exercise: Next: CCOc1cc(C(=O)NCC(F)(F)F)nn1Cc1ccnc(OC(F)F)c1 [Compound 128]
Solution: 80

Exercise: Next: CCCc1cc(C(=O)NC2CC2)nn1Cc1cc(C(F)(F)F)nn1C [Compound 202]
Solution: 30

Exercise: Next: CCc1cc(C(=O)NCC(F)(F)F)nn1Cc1ccnc(Br)c1 [Compound 224]
Solution: 70
